# ASSAY TARGET: CYP2C8 (Homo sapiens)
# Sequence (P10632 whole entry): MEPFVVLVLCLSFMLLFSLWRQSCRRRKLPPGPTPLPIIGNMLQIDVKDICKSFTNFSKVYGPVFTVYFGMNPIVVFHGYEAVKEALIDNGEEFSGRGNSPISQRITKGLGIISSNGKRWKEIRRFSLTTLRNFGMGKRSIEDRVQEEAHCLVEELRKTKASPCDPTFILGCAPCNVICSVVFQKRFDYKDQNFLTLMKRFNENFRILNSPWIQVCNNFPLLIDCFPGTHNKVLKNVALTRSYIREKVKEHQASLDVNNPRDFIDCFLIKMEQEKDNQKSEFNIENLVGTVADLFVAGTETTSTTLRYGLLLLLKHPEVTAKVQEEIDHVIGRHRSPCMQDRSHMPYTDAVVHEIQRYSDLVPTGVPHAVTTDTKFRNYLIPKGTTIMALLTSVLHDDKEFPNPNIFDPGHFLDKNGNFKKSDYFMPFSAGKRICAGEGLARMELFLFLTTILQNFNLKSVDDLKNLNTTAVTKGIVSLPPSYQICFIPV
# RUN DESCRIPTION: Inhibition of CYP2C8 in human liver microsomes using amodiaquine as substrate at 50 uM by LC-MS/MS analysis
# Assay type: ADME
# MEASUREMENT CONDITIONS: probe amodiaquine
PARAMETER MEASURED: inhibition at 50 µM (%)
All answers are understood in %, so give the number only.

The measured inhibition at 50 µM associated with CCN(C(=O)c1cc(C(C)C)c(O)cc1O)c1cccnc1 reads 54.3

====

# ASSAY TARGET: Heat shock protein HSP90 (Homo sapiens, UniProt P07900+P08238)
# RUN DESCRIPTION: Inhibition of HSP90 (unknown origin) assessed as competition of fluorescently labelled geldanamycin binding after 2 hrs by microplate reader analysis
# Type: protein assay
IC50 reference
Numeric only. Scale: nM

CCN(C(=O)c1cc(C(C)C)c(O)cc1O)c1ccc2[nH]ccc2c1
117
CC(C)c1cc(C(=O)N(C)c2ccc3c(ccn3C)c2)c(O)cc1O
106
CCN(C(=O)c1cc(C(C)C)c(O)cc1O)c1cccnc1
110
CCN(C(=O)c1cc(C(C)C)c(O)cc1O)c1ccncc1
109

Query compound follows.
Entry under test: CC(C)c1cc(C(=O)N(C)c2ccc3[nH]ccc3c2)c(O)cc1O . Its IC50 was 115

====

# RUN DESCRIPTION: AUC (0 to infinity) in Sprague-Dawley rat at 20 mg/kg, po measured after 1 hrs by LC-MS/MS analysis
# Type: ADME, organism-based
# Design: route oral, time 1 hrs, dose 20 mg/kg
# MEASUREMENT CONDITIONS: in vivo
PARAMETER MEASURED: AUC (ng·h/mL)
Give the quantity in ng·h/mL, number only.

Looking up CCN(C(=O)c1cc(C(C)C)c(O)cc1O)c1cccnc1 , I found its AUC recorded as 811

====

# RUN DESCRIPTION: Hepatic clearance in Sprague-Dawley rat by LC-MS/MS analysis
# Type: ADME, tissue-based, Hepatocyte
# MEASUREMENT CONDITIONS: hepatocytes
PARAMETER MEASURED: CLhep predicted (mL/min/kg)
The answer is to be given in mL/min/kg; state only the numeric part.

The molecule listed as CCN(C(=O)c1cc(C(C)C)c(O)cc1O)c1cccnc1 shows CLhep predicted equal to 51.2

====

# ASSAY TARGET: Cytochrome P450 2C8 (Homo sapiens, UniProt P10632)
pIC50: −log10 of the molar value.
PARAMETER MEASURED: pIC50

Observed pIC50 on Cytochrome P450 2C8 (Homo sapiens, UniProt P10632), entry CCN(C(=O)c1cc(C(C)C)c(O)cc1O)c1cccnc1 , equals < 4.30

====

# RUN DESCRIPTION: Antiproliferative activity against human HUVEC cells assessed as growth inhibition incubated for 48 hrs by Sulforhodamine B assay
# Format: cell-based
Each entry below lists one item and its recorded GI50 at 48 h value.

These solved cases illustrate the format of a correct answer.
CC(C)c1cc(C(=O)N(C)c2ccc3c(ccn3C)c2)c(O)cc1O
820 nM
COc1c(C)cnc(Cn2cnc3c(Cl)nc(N)nc32)c1C
1420 nM
C=CCNC1=C2C[C@@H](C)C[C@H](OC)[C@H](O)[C@@H](C)/C=C(\C)[C@H](OC(N)=O)[C@@H](OC)/C=C\C=C(/C)C(=O)NC(=CC1=O)C2=O
< 100 nM
CCN(C(=O)c1cc(C(C)C)c(O)cc1O)c1ccc2[nH]ccc2c1
< 100 nM
CC(C)c1cc(C(=O)N(C)c2ccc3[nH]ccc3c2)c(O)cc1O
570 nM

Alright, here's another molecule for you.
GI50 at 48 h reported for this molecule CCN(C(=O)c1cc(C(C)C)c(O)cc1O)c1ccncc1 : < 100 nM
